B1: Osa-1-4 twister ribozyme (parent)
chain: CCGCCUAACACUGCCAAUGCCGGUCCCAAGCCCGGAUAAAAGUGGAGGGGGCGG

# Variants of: B1
# test.name: self-cleavage, relative activity (ratio to wild type); higher = more cleavage; co-transcriptional
measured.metric: self-cleavage
Please reply with the value in numeric form only.

Enquiry: Quick check: self-cleavage of C31A U24G ?
Return: 0.01

Enquiry: Looking for the measured self-cleavage of A7G U18C , can you help?
Return: 0.25

Enquiry: Can you share its self-cleavage? I mean this variant: G22A G42A
Return: 0.17

Enquiry: Returns the measured self-cleavage for the input variant. Input: A36G A46U
Return: 0.1

Enquiry: Name the reported self-cleavage value associated with the variant A46U C26G
Return: 0.03

Enquiry: Item under review: A8G C21U . Reported self-cleavage?
Return: 0.38

Enquiry: Fill in the blank: the reported self-cleavage of A10C C52A is ____.
Return: 0.06

Enquiry: So what does the record say about self-cleavage for G47A G48C ?
Return: 0.04

Enquiry: self-cleavage lookup needed for C32G C52A , thanks.
Return: 0.12

Enquiry: Which self-cleavage value belongs to G42C G51A ?
Return: 0.08

Enquiry: Could you share which self-cleavage value was measured for A39U U24G ?
Return: 0.03

Enquiry: So what does the record say about self-cleavage for A7U G35A ?
Return: 0.07

Enquiry: Value lookup for self-cleavage; key = A28C C14G
Return: 0.17

Enquiry: Entry G48C U43C has what self-cleavage?
Return: 0.07

Enquiry: self-cleavage lookup needed for A38C G19U , thanks.
Return: 0.33

Enquiry: Field request: self-cleavage | item: A38G G44U
Return: 0.95

Enquiry: Look up self-cleavage: A17G A28U
Return: 0.87

Enquiry: What measured self-cleavage goes with A8U C9A ?
Return: 0.09

Enquiry: Fill blank: measured self-cleavage of the variant A41U G23U is ____.
Return: 0.09

Enquiry: self-cleavage for G47C U18C ?
Return: 0.1

Enquiry: I have this variant here, A28G C26U , and I need its recorded self-cleavage.
Return: 0.11

Enquiry: Need self-cleavage of G48C G49C , thanks.
Return: 0.07

Enquiry: Returns the measured self-cleavage for the input variant. Input: A38G A39U
Return: 0.98

Enquiry: Form field: reported self-cleavage of A40C U24C
Return: 0.03

Enquiry: Value lookup for self-cleavage; key = C26A G50A
Return: 0.07

Enquiry: Endpoint output: self-cleavage of A46G C14U . Value?
Return: 0.03

Enquiry: What measured self-cleavage goes with A39G U24G ?
Return: 0.02

Enquiry: Looking for the measured self-cleavage of A7U U18G , can you help?
Return: 0.11

Enquiry: Item under review: C15U U43G . Reported self-cleavage?
Return: 0.12

Enquiry: Entry under review: A40U G19A . Reported self-cleavage?
Return: 0.17

Enquiry: Quick one: self-cleavage for A7U U24C ?
Return: 0.04

Enquiry: Given the variant A36G G23C , what is its reported self-cleavage?
Return: 0.07

Enquiry: Need self-cleavage of A40U U12A , thanks.
Return: 1

Enquiry: Record request: self-cleavage value, item C14A G49U
Return: 0.03

Enquiry: Reported self-cleavage for A7C G35A : what is it?
Return: 0.04

Enquiry: # self-cleavage lookup, item C33G G45U
Return: 0.02

Enquiry: Looking for the measured self-cleavage of A38C G23C , can you help?
Return: 0.04

Enquiry: I would be grateful if you could share the reported self-cleavage for A36G G23A .
Return: 0.62

Enquiry: I'd like to know its self-cleavage. The variant in question is A8C G22C
Return: 0.03

Enquiry: Please give the measured self-cleavage for this variant: A17C G34C
Return: 0.14

Enquiry: Entry under review: A38C C9U . Reported self-cleavage?
Return: 0.78

Enquiry: Please look up its self-cleavage: A7U C26A
Return: 0.02

Enquiry: Reported self-cleavage, variant A39G C11U : ____
Return: 0.93

Enquiry: Give the measured self-cleavage of A39U A8U .
Return: 0.16

Enquiry: Look up self-cleavage: G42C U24A
Return: 0.05

Enquiry: Fill in: self-cleavage of A39U G54A is ___
Return: 0.73
